testedOn: rat brain kynureninase (Rattus norvegicus)
Construct: Partial purification of rat brain kynureninase was performed according to Lee et al; from tissue; host or cells: rat brain, partially purified enzyme
Sequence (P70712 whole entry): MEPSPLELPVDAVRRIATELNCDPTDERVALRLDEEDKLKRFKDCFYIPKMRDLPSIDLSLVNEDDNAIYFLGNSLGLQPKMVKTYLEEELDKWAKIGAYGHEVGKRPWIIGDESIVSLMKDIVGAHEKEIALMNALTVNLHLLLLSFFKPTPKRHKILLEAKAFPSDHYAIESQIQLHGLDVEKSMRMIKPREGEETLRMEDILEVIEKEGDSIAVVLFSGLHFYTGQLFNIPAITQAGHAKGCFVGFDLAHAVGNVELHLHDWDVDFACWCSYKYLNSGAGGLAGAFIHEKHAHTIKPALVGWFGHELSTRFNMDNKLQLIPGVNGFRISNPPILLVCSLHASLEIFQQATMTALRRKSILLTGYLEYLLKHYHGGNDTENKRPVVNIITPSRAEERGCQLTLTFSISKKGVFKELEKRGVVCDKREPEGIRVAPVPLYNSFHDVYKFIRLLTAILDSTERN
assayName: Kynureninase assay in the rat brain
Assay type: biochemical
settings: rat brain homogenate, read-out: % INHIBITION AT 100 μM Kyn-Ase
reportedProperty: inhibition at 100 µM (%)
Your answer is read as %, so omit the unit and give the number.

COc1ccc(C(=O)CC(N)C(=O)O)cc1 (racemic)
17
COc1ccccc1C(=O)CC(N)C(=O)O (racemic)
86
NC(CC(=O)c1cccc(F)c1)C(=O)O (racemic)
0
NC(CC(=O)c1ccc(Cl)cc1)C(=O)O (racemic)
0

Qu. Requested field: inhibition at 100 µM. Item: Cc1ccccc1C(=O)CC(N)C(=O)O (racemic)
Ans. 40
